# Test summary: TNF-a-driven NF-kB reporter inhibitors, primary screen, selectivity assay for NOD1/NOD2 signaling inhibitor project, cell-based, HEK293T NF-kB-Luc, luminescence (AID 1852)
# Assay conditions: TNF-a induced, 14 h, at 4 µM
About 1,100 (44%) of roughly 2,500 compounds were called active.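 How the source made its calls: active means inhibition above 50% at 4 µM in the single-point screen; inactive means inhibition of 50% or less.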 So high a share suggests a set chosen from earlier hits. The list shows a part of the results.
Labels: y for active, n for inactive

{"Molecule": "CCC(=O)N1CCN(c2ccc(NC(=O)c3cc4ccccc4o3)cc2Cl)CC1", "Category": "y"}
{"Molecule": "CC(C)(C)c1ccc(-c2noc(CCC(=O)Nc3cccnc3)n2)cc1", "Category": "y"}
{"Molecule": "COc1cc(/C=N\\NC(=O)c2ccc(-c3ccccc3)cc2)cc(Br)c1O", "Category": "n"}
{"Molecule": "O=[N+]([O-])c1ccc(O)c(/C=N\\N=C2c3ccccc3-c3ccccc32)c1", "Category": "y"}
{"Molecule": "O=C(N/N=C/c1ccc([N+](=O)[O-])s1)c1ccncc1", "Category": "n"}
{"Molecule": "C=CCC1(CC=C)CCCN1C(=O)c1cc(COc2ccc(C)nc2)on1", "Category": "y"}
{"Molecule": "Cc1cccc(C2=NC(C(F)(F)F)(C(F)(F)F)c3c(n(-c4ccc(F)cc4)c(=O)[nH]c3=O)N2)c1", "Category": "n"}
{"Molecule": "Oc1c(I)cc(I)c2cccnc12", "Category": "y"}
{"Molecule": "O=c1c2cc(Br)ccc2nc(-c2ccc(Cl)cc2)n1O", "Category": "n"}
{"Molecule": "CC(C)CC[n+]1ccccc1/C=C/c1ccc(N(C)C)cc1", "Category": "y"}
{"Molecule": "CC(=O)c1c(O)c(C)c(O)c2c1OC1=CC(=O)C(C(C)=O)C(=O)[C@@]12C (some centres undefined)", "Category": "y"}
{"Molecule": "CCOc1ccc(/C=C/C(O)=C2/C(=O)N(C)C3(C)CC2c2ccccc2O3)cc1OC (centres undefined)", "Category": "y"}
{"Molecule": "O=C1C=C(Nc2ccccc2O)c2ccccc2C1=O", "Category": "n"}
{"Molecule": "Cc1ccc(/C=N/Nc2ccc(C(=O)O)cc2)s1", "Category": "n"}
{"Molecule": "O=[N+]([O-])c1cc(Cl)c(O)c2ncccc12", "Category": "y"}
{"Molecule": "COc1ccccc1Nc1nc(-c2sc(NC(=O)c3ccco3)nc2C)cs1", "Category": "y"}
{"Molecule": "O=[N+]([O-])c1cccc(/C=N\\N=C2c3ccccc3-c3ccccc32)c1O", "Category": "n"}
{"Molecule": "COc1ccc(-c2cc(=O)oc3cc(OCC(=O)Nc4ccc(CCO)cc4)ccc23)cc1", "Category": "n"}
{"Molecule": "CC[n+]1cc(C)ccc1/C=C/c1ccc(N(C)C)cc1", "Category": "y"}
{"Molecule": "CCc1ccc(OCC(=O)Nc2ccc(-c3cc4ccccc4oc3=O)c(OC)c2)cc1", "Category": "y"}
{"Molecule": "CCN(c1ccc(C)cc1)S(=O)(=O)c1nnc(NC(=O)c2ccco2)s1", "Category": "n"}
{"Molecule": "COc1cccc(C(=O)Oc2c(Br)cc(Br)cc2/C=N/NC(=O)c2cc(C)[nH]n2)c1", "Category": "y"}
{"Molecule": "Cc1cccc(CSc2cccc3cccnc23)c1", "Category": "y"}
{"Molecule": "Nc1ccc2c(c1)C(=O)C(=O)c1ccccc1-2", "Category": "y"}
{"Molecule": "C=CCC1(CC=C)CCCN1C(=O)c1cc(COc2cncc(Cl)c2)on1", "Category": "n"}
{"Molecule": "C/C=C/Cn1c(SCCCc2ccccc2)nc2c1c(=O)[nH]c(=O)n2C", "Category": "n"}
{"Molecule": "CC(=O)Nc1ccc(C(=O)Nc2nc(-c3cc(C)n(Cc4ccccc4)c3C)cs2)cc1", "Category": "n"}
{"Molecule": "O=C(Nc1ccccn1)c1ccc(-c2ccccc2)cc1", "Category": "n"}
{"Molecule": "Oc1c(Cl)cc(Cl)c2cccnc12", "Category": "y"}
{"Molecule": "COc1ccc(CNS(=O)(=O)c2ccc3c(c2)CC(C)N3C(=O)C2CC2)cc1 (centres undefined)", "Category": "n"}
{"Molecule": "COc1cc(/C=N/NC(=O)c2ccc(-c3ccccc3)cc2)cc(OC)c1OC", "Category": "y"}
{"Molecule": "Oc1c(CN2CCN(c3ccc(F)cc3)CC2)cc(Cl)c2cccnc12", "Category": "n"}
{"Molecule": "C=CCN(CC=C)C(=S)NC(=O)c1ccc(-c2ccccc2)cc1", "Category": "y"}
{"Molecule": "Cc1cc(OCc2ccc(C(=O)Nc3ccc(C(=O)O)cc3)o2)ccc1Cl", "Category": "n"}
{"Molecule": "Cc1cccc(-n2c(SCC(=O)N3CCC(C(=O)O)CC3)nc3ccccc3c2=O)c1C", "Category": "y"}
{"Molecule": "O=c1[nH]c(=O)n(Cc2ccco2)c2c1C(C(F)(F)F)(C(F)(F)F)N=C(c1ccc(F)cc1)N2", "Category": "y"}
{"Molecule": "Oc1c(C(c2ccc(Cl)cc2)N2CCCC2)cc(Cl)c2cccnc12 (centres undefined)", "Category": "n"}
{"Molecule": "CC(C)Cc1ccc(C(C)C(=O)Nc2cccnc2)cc1 (centres undefined)", "Category": "n"}
{"Molecule": "Cc1ccn2cc(-c3cc4ccccc4oc3=O)nc2c1", "Category": "n"}
{"Molecule": "Cc1ccc(OCc2cc(C(=O)NC3CCCCC3)no2)cn1", "Category": "n"}
{"Molecule": "CC(=O)Nc1nc(C)c(-c2csc(Nc3cccc([N+](=O)[O-])c3)n2)s1", "Category": "n"}
{"Molecule": "O=c1c2cc(Cl)ccc2nc(-c2ccc(Cl)c(Cl)c2)n1O", "Category": "y"}
{"Molecule": "CC[n+]1ccc(/C=C/c2ccc(N(C)C)cc2)c2ccccc21", "Category": "y"}
{"Molecule": "Cc1cccc(N2CCN(C(=O)Cc3cn(C)c4ccccc34)CC2)c1C", "Category": "n"}

Attribution: PubChem BioAssay AID1852
